Assay notes: Plasma oxytocin pharmacokinetics, phase 1 single-dose study
Format: in vivo, human
Measurement context: female, human, plasma, im, 10 IU
Endpoint label: half-life (min)
Write it as a number; the unit min goes unstated.

Could you share which half-life value was measured for "CC[C@H](C)[C@@H]1NC(=O)[C@H](Cc2ccc(O)cc2)NC(=O)[C@@H](N)CSSC[C@@H](C(=O)N2CCC[C@H]2C(=O)N[C@@H](CC(C)C)C(=O)NCC(N)=O)NC(=O)[C@H](CC(N)=O)NC(=O)[C@H](CCC(N)=O)NC1=O" ?
38.4
